These measurements were taken from ChEMBL document CHEMBL1800075.

experimental system: Neuropeptide S receptor (Homo sapiens)
Sequence (Q6W5P4 whole entry): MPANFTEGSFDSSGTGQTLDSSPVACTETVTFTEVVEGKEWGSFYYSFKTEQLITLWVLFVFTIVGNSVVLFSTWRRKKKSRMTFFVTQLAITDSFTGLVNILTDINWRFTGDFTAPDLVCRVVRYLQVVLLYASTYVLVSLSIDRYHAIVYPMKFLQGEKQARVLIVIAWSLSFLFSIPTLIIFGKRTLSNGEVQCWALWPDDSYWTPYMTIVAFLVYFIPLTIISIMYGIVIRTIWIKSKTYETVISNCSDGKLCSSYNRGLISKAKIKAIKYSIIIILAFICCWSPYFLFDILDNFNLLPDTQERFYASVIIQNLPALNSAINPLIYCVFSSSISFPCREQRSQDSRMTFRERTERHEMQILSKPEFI
test name: Antagonist activity at human recombinant NPS receptor expressed in CHOK1 cells assessed as inhibition of NPS-induced calcium mobilization by FLIPR assay
Hi! Could you tag entries with IC50 below 200 nM as Criterion met, and those at or above as Criterion not met? Much appreciated.

Exam item: IC50 under 200 nM? Item: CCN(CC)C(=O)CCC1(c2ccc(Cl)cc2)c2c(OC)cccc2-c2nccn21 (stereo not given)
Marked response: Criterion met

Exam item: Does the reported IC50 of C[C@@H]1CC[C@H](C)N1C(=O)CCC1(c2ccc(Cl)cc2)c2ccccc2-c2nccn21 (mixture of isomers) stay below 200 nM?
Marked response: Criterion met

Exam item: Field: below-cutoff. Rule: recorded IC50 strictly less than 200 nM. Subject: Brc1ccc(C2(Cc3ccccc3)c3ccccc3-c3nccn32)cn1 (stereo not given)
Marked response: Criterion not met

Exam item: Lab note: confirm whether the reported IC50 for this compound is below 200 nM, equality not counting. compound: N#Cc1ccc(C2(CC3CCOCC3)c3ccccc3-c3nccn32)cc1 (stereo not given)
Marked response: Criterion not met

Exam item: Is the reported IC50 for N#Cc1cccc(C2(Cc3ccccc3)c3ccccc3-c3nccn32)c1 (stereo not given) strictly below 200 nM?
Marked response: Criterion not met

Exam item: Please state whether IC50 is below 200 nM for COc1ccc2c(c1)C(CCC(=O)N1[C@H](C)CC[C@@H]1C)(c1ccc(Cl)cc1)n1ccnc1-2 (stereo not given in full)
Marked response: Criterion met

Exam item: Decide: IC50 of Brc1ccc(C2(Cc3ccccc3)c3ccccc3-c3nccn32)cc1 (stereo in doubt; 2) strictly below 200 nM?
Marked response: Criterion met

Exam item: Just wondering, is IC50 of COc1cccc2c1C(CC1CCOCC1)(c1ccc(Cl)cc1)n1ccnc1-2 (stereo not given) below 200 nM?
Marked response: Criterion met

Exam item: Threshold test, IC50 < 200 nM: Fc1ccc(C2(Cc3ccccc3)c3ccccc3-c3nccn32)cc1 (stereo not given)
Marked response: Criterion not met

Exam item: Consider Brc1ccc(C2(CC3CCOCC3)c3ccccc3-c3nccn32)cc1 (racemic) . Does its IC50 lie strictly below 200 nM?
Marked response: Criterion met

Exam item: Given the entry CC(C)N(C(=O)CCC1(c2ccc(Cl)cc2)c2ccccc2-c2nccn21)C(C)C (racemic) , would its reported IC50 be below 200 nM?
Marked response: Criterion met

Exam item: Please determine if N#Cc1ccccc1CC1(c2ccc(Br)cc2)c2ccccc2-c2nccn21 (racemic) is below 200 nM in terms of IC50.
Marked response: Criterion not met

Exam item: I'd appreciate it if you could check whether Clc1ccc(C2(CC3CCOCC3)c3ccccc3-c3nccn32)cc1 (stereo not given) has IC50 smaller than 200 nM.
Marked response: Criterion met

Exam item: Take the compound Brc1ccc(C2(CC3CCCC3)c3ccccc3-c3nccn32)cn1 (stereo not given) and say whether its IC50 is less than 200 nM.
Marked response: Criterion not met

Exam item: For Brc1cccc(C2(Cc3ccccc3)c3ccccc3-c3nccn32)c1 (stereo not given) , is the recorded IC50 below the cut-off of 200 nM?
Marked response: Criterion not met

Exam item: Given Brc1ccc(C2(Cc3ccccc3)c3ccccc3-c3nccn32)cc1 (racemic) , is recorded IC50 strictly lower than 200 nM?
Marked response: Criterion not met

Exam item: Consider the compound CC(C1CCN(C(=O)CCC2(c3ccc(Cl)cc3)c3ccccc3-c3nccn32)CC1)N1CCC(F)(F)C1 (mixture of isomers) . Is its IC50 strictly less than 200 nM?
Marked response: Criterion not met

Exam item: Check if IC50 falls below 200 nM for Clc1ccc(C2(Cc3ccccc3)c3ccccc3-c3nccn32)cc1 (stereo not given) .
Marked response: Criterion not met

Exam item: hey, is IC50 for CCN(C(=O)CCC1(c2ccc(Cl)cc2)c2ccccc2-c2nccn21)C(C)C (racemic) lower than 200 nM or not?
Marked response: Criterion met

Exam item: Could you please tell me whether IC50 recorded for Fc1ccc(C2(CC3CCOCC3)c3ccccc3-c3nccn32)cc1 (stereo not given) is less than 200 nM?
Marked response: Criterion not met
